Test system: PC-3 prostate
Assay: NCI-60 one-dose screen, 48 h (100 = growth as untreated, 0 = no growth, -100 = all killed)
Conditions: 10 µM unless noted
The panel holds about 83,000 compounds, 20% with a hit somewhere; the sample as a whole holds those more often.
ENDPOINT_LABEL: growth (%)

1) COC(=O)c1c2c(c(C)[n+]([O-])c1C)C(=O)C(NCc1ccc(F)c(F)c1)=CC2=O | 15.6
2) COc1cccc2c1C=C1CCCCC3=Cc4c(OC)cccc4OC13O2 | 33.7
3) O=C(/C=C/c1cccc(Cl)c1)OCc1ccc2cc1OCC#C/C=C\C#CCO2 | 96.2
4) O=C(NC1CCCCC1)C(c1cccs1)N(CCc1ccccc1)C(=O)c1ccco1 (stereo not given) | 92.9
5) O=C(NC1CCN(Cc2ccccc2)CC1)c1cc2nc(-c3ccc(Cl)s3)cc(C(F)(F)F)n2n1 | 72.2

----------
Test system: UACC-257 melanoma
Test: NCI-60 one-dose screen, 48 h
Details: 10 µM unless noted
The panel holds about 83,000 compounds, 20% with a hit somewhere; the sample as a whole holds those more often. Calls of active or inactive are those of the source. The calls were made as follows: active = growth percent below 10; inactive = the rest.
Possible outcomes: active, inactive

1) CCOC(=O)c1ccc(N=Cc2sc(=O)[nH]c2O)cc1 | inactive
2) COc1ccc(C2Nc3ncnc(N)c3N=C3c4ccccc4C(=O)C32)cc1 (stereo not given) | inactive
3) CNCCNc1nc2ccccc2c2c(=O)c3cc(OC)ccc3sc12 | inactive
4) COc1ccc(Cn2cc(Cn3cc(C=C4C(=O)NC(=O)NC4=O)c4ccccc43)nn2)cc1 | inactive
5) O=C(NC1CCN(Cc2ccccc2)CC1)c1cc(C(=O)NC2CCN(Cc3ccccc3)CC2)cc(C(=O)NC2CCN(Cc3ccccc3)CC2)c1 | inactive
6) CCCC(=O)CC(C)=O.CCCC(=O)CC(C)=O.[Cu] | inactive
7) Nc1ccc(-c2nc3cc(Oc4ccc(Oc5ccc6[nH]c(-c7ccc(N)cc7)nc6c5)cc4)ccc3[nH]2)cc1 | inactive
8) Cn1nc(C(C)(C)C)cc1NC(=O)Cc1ccc(/C=C2\C(=O)Nc3ccccc32)cc1 | inactive
9) O=c1cc(NC2CCN(CCCc3ccccc3)CC2)c2cc(Cl)ccc2o1 | active
10) O=c1oc2ccc(Br)cc2c(=O)n1-c1ccc(Br)cc1F | active
11) COc1cc(/C=C2\CN(S(=O)(=O)c3ccccc3)C/C(=C\c3cc(CN4CCCC4)c(O)c(OC)c3)C2=O)cc(CN2CCCC2)c1O | inactive
12) COc1ccc(OC)c(/C=C/C(=O)c2c(C)nc3ccccc3c2/C=C/c2ccccc2)c1 | inactive
13) COc1cc(C(=O)O/N=C(\N)Cc2cccc3ccccc23)cc(OC)c1OC | active
14) N[C@@H](CC/[N+]([O-])=N/O)C(=O)O | inactive
15) O=c1c2cc(F)ccc2sc2c(NCCN3CCCC3)nc3ccccc3c12 | inactive
16) O=C(NN1C(=O)CSC1c1ccc(Cl)cc1)c1[nH]c2ccc(F)cc2c1-c1ccccc1 (stereo not given) | inactive
17) O=C(Nc1ccc(Cl)cc1F)c1cc(I)ccc1O | inactive
18) COc1ccc(-c2cn3c(C(=O)Nc4ccccc4Cl)c(-c4ccccc4)c4c3n2CCCC4)cc1 | inactive
19) c1ccc(CNc2nc(Nc3ccccc3)nc3ccccc23)cc1 | inactive
20) O=C(Nc1ccc(Cl)cc1)N1CCN(c2ccc3nncn3n2)CC1 | active
